This collection of values is drawn from patent US9618524B2.

target-or-system: T1, alpha-synuclein plaque particles (Homo sapiens, UniProt P37840)
T1 construct: 140 amino acids polypeptide
assay-protocol: Mass spectroscopy proteomics, semi-quantitative binding affinity of serum proteins (plaqueproteome, Table 2)
condition-info: higher number = stronger affinity
Provide the reported Semi-quantitative analysis of proteins binding to different plaque particles: Synuclein of each item.

- molecule: "Platelet basic protein (protein) SSTKGQTKRNLAKGKEESLDSDLYAELRCMCIKTTSGIHPKNIQSLEVIGKGTHCNQVEVIATLKDGRKICLDPDAPRIKKIVQKKLAGDESAD"
  reported: 1

Requested read-out: Semi-quantitative analysis of proteins binding to different plaque particles: Synuclein. Entry: Immunoglobulin lambda-like polypeptide 1 (protein) LLRPTAASQSRALGPGAPGGSSRSSLRSRWGRFLLQRGSWTGPRCWPRGFQSKHNSVTHVFGSGTQLTVLSQPKATPSVTLFPPSSEELQANKATLVCLMNDFYPGILTVTWKADGTPITQGVEMTTPSKQSNNKYAASSYLSLTPEQWRSRRSYSCQVMHEGSTVEKTVAPAECS
0
